B1: TRIM29 (parent)
chain: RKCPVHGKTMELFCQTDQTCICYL

- Variants of: B1
- MEASUREMENT DESCRIPTION: protein stability index of a GFP-peptide fusion (GPS, HEK-293T) (PSI 1-6); higher = more stable;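 further: lentivirally expressed fusions sorted by FACS into six bins by GFP to DsRed ratio, PSI derived from sequencing read proportions per bin multiplied by bin number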
- TEST SETTINGS: c terminus: a fixed tail appended
MEASURED PROPERTY: protein stability index
Give bare numbers.

# count of solved cases: 5
MUTATION NOTATION: K2H
protein stability index: 2.15
//
MUTATION NOTATION: L12Y
protein stability index: 2.86
//
MUTATION NOTATION: C14Q
protein stability index: 2.03
//
MUTATION NOTATION: P4Q
protein stability index: 1.95
//
MUTATION NOTATION: C3S
protein stability index: 2.54

For each entry beneath this line, provide reported protein stability index.
1. M10R
2. L24N
3. Q18V
4. K8G
5. Q18M
6. L24S
7. R1Q

1: 2.84; 2: 4.57; 3: 2.65; 4: 1.59; 5: 2.12; 6: 5.39; 7: 1.91
